# key: entry, value: self-cleavage
B1: HDV Ribozyme (parent)
chain: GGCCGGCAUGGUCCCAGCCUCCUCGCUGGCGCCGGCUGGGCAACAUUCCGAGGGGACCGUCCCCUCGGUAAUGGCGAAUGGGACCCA

- Variants of: B1
- ASSAY COMMENT: self-cleavage, relative activity (ratio to wild type); higher = more cleavage; co-transcriptional
// return a plain number; no unit text

VARIANT STRING	PROPERTY MEASURED	NUMERIC RESULT
A8C C41A	self-cleavage	0.798
G2U G17C	self-cleavage	0.0228

stdin: self-cleavage for C24U G28A ?
stdout: 0.172

stdin: Which measured self-cleavage value corresponds to C3A G50U ?
stdout: 0.754

stdin: Return reported self-cleavage; argument: C19G C66U
stdout: 0.0639

stdin: Any idea what its self-cleavage is? The variant is G17A C48A
stdout: 0.506

stdin: Any idea what self-cleavage was measured for G39C C41A ?
stdout: 0.802

stdin: Look up self-cleavage for this variant: C32U A43G
stdout: 0.63

stdin: Value lookup for self-cleavage; key = G67U C85G
stdout: 0.831

stdin: For C14A C24A , what is its reported self-cleavage?
stdout: 0.383

stdin: Fill blank: measured self-cleavage of the variant C3U A83U is ____.
stdout: 0.17

stdin: # input variant: C14U C57U ; wanted: its self-cleavage
stdout: 0.878

The measured values listed here are drawn from the RNAGym collection of RNA variant scans (doi:10.7554/elife.80360).
